B1: PhoQ; a variant is named by its letters at X, in order, P23837 (parent)
chain: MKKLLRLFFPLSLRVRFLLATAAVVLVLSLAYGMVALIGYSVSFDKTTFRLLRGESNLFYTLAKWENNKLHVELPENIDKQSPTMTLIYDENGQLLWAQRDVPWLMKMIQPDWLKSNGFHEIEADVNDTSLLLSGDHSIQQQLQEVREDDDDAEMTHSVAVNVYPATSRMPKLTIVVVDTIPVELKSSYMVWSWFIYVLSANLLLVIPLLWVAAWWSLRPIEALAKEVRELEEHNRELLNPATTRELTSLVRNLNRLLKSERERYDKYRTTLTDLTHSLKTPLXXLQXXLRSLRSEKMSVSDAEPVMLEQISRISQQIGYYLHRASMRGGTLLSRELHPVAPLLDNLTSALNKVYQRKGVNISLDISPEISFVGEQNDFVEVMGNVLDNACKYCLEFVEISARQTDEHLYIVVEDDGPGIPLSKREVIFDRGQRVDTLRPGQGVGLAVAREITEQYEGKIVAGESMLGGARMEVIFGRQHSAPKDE

- Variants of: B1
- PROTOCOL TEXT: enrichment ratio after two sorts for PhoP signalling (ratio (wild type AVST 3.29)); higher = more functional
- RUN CONDITIONS: with PhoP (E. coli)
Whole data set: some 140,000 sequences, median “enrichment ratio after two sorts for PhoP signalling” near 0, cut for the highest 2% near 11. The sample holds the highest values, similar sequences and a random draw of the others, so the mix is not that of the screen.

{"MUT": "MSHV", "enrichment ratio": 17.4}
{"MUT": "AYGE", "enrichment ratio": "≤ 0.25"}
{"MUT": "ASTA", "enrichment ratio": 9.73}
{"MUT": "SNKV", "enrichment ratio": "≤ 0.25"}
{"MUT": "RGHG", "enrichment ratio": "≤ 0.25"}
{"MUT": "MRHV", "enrichment ratio": "≤ 0.25"}
{"MUT": "CSLT", "enrichment ratio": 11.7}
{"MUT": "KCLQ", "enrichment ratio": "≤ 0.25"}
{"MUT": "CSLS", "enrichment ratio": 21.9}
{"MUT": "ASLQ", "enrichment ratio": 11.8}
{"MUT": "VESY", "enrichment ratio": "≤ 0.25"}
{"MUT": "KYCD", "enrichment ratio": "≤ 0.25"}
{"MUT": "KAGV", "enrichment ratio": "≤ 0.25"}
{"MUT": "AKLD", "enrichment ratio": "≤ 0.25"}
{"MUT": "RYFG", "enrichment ratio": "≤ 0.25"}
{"MUT": "LVVW", "enrichment ratio": "≤ 0.25"}
{"MUT": "CSFT", "enrichment ratio": "≤ 0.25"}
{"MUT": "LNVE", "enrichment ratio": "≤ 0.25"}
{"MUT": "KSGV", "enrichment ratio": "≤ 0.25"}
{"MUT": "QVAH", "enrichment ratio": "≤ 0.25"}
{"MUT": "FKMN", "enrichment ratio": "≤ 0.25"}
{"MUT": "QNDV", "enrichment ratio": "≤ 0.25"}
{"MUT": "AILQ", "enrichment ratio": 13.6}
{"MUT": "MSGV", "enrichment ratio": 13.8}
